Entries with reported IC50 on human MC4 receptor (Homo sapiens, UniProt P32245)
Sequence (P32245 whole entry): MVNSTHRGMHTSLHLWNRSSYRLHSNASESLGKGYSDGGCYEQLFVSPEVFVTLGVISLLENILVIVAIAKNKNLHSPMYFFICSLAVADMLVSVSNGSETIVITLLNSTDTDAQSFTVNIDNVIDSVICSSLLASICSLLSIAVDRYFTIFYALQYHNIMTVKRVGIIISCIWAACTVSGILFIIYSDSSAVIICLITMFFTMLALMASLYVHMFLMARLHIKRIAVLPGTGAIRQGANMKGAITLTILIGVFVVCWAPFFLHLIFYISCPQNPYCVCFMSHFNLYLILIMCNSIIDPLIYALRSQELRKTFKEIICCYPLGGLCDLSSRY
readoutLabel: IC50 (nM)

itemSmiles: Cc1cc(N2CCOCC2)cc(N[C@@H]2CN(C(=O)Cc3ccc(OC(F)(F)F)cc3)C[C@H]2O)n1
readoutLabel: IC50
readoutUnits: nM
quantitativeReadout: 16

a = O=C(Cc1ccc(OC(F)(F)F)cc1)N1C[C@@H](O)[C@H](Nc2nc(N3CCOCC3)c3cc(Cl)ccc3n2)C1
b = O=C(Cc1ccccc1-c1ccccc1)N1CC[C@H](Nc2nc(N3CCc4ccccc4C3)c3ccc(F)cc3n2)C1
Decide: a or b , by lowest recorded IC50. Output the label that corresponds to your choice. a
